Provenance of the data: paper PMC12676312

Tested on: Mayaro virus (MAYV)
Format: cell-based, Mayaro virus (ATCC VR 66, strain TR 4675)
Settings: Vero cells infected with MAYV (MOI 1) pre-treated 1 h with compound at its CC50-based concentration or 500 μM; 48 h; MTT; infected control 0%, uninfected 100%
Kindly state Antiviral screening (cell viability %) for each of the entries shown.
Report as a plain number; the unit % is understood.

What does the record list as Antiviral screening (cell viability %) for Cc1ccc(C(C)C)cc1OCC(=O)Nc1ccccc1F ? 22.83

What does the record list as Antiviral screening (cell viability %) for Cc1ccc(C(C)C)cc1OCC(=O)Nc1cccc(Br)c1 ? 50.0

What does the record list as Antiviral screening (cell viability %) for Cc1ccc(C(C)C)cc1OCC(=O)Nc1ccccc1Cl ? 62.5

What does the record list as Antiviral screening (cell viability %) for Cc1ccc(C(C)C)cc1OCC(=O)Nc1ccc(Cl)cc1 ? 0

What does the record list as Antiviral screening (cell viability %) for Cc1ccc(C(C)C)cc1OCC(=O)Nc1ccc(Br)cc1 ? 0

What does the record list as Antiviral screening (cell viability %) for Cc1ccc(C(C)C)cc1OCC(=O)Nc1ccccc1 ? 0

What does the record list as Antiviral screening (cell viability %) for Cc1ccc(C(C)C)cc1OCC(=O)Nc1ccccc1Br ? 0
